molecular target: Fes (UniProt P07332); experiment: phosphorylation enrichment, bacterial display (enrichment ratio); higher = better substrate or ligand; peptides without Tyr show the background;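 also: 11-residue human phosphosite peptides and single-mutation variants displayed on the E. coli surface, counted by deep sequencing, each peptide's frequency after selection divided by its frequency in the unselected input library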;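 also: frequency after pTyr selection over input frequency; kinase dosed for 20-30% of maximal phosphorylation in three min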
Sequence (P07332 whole entry, looked up): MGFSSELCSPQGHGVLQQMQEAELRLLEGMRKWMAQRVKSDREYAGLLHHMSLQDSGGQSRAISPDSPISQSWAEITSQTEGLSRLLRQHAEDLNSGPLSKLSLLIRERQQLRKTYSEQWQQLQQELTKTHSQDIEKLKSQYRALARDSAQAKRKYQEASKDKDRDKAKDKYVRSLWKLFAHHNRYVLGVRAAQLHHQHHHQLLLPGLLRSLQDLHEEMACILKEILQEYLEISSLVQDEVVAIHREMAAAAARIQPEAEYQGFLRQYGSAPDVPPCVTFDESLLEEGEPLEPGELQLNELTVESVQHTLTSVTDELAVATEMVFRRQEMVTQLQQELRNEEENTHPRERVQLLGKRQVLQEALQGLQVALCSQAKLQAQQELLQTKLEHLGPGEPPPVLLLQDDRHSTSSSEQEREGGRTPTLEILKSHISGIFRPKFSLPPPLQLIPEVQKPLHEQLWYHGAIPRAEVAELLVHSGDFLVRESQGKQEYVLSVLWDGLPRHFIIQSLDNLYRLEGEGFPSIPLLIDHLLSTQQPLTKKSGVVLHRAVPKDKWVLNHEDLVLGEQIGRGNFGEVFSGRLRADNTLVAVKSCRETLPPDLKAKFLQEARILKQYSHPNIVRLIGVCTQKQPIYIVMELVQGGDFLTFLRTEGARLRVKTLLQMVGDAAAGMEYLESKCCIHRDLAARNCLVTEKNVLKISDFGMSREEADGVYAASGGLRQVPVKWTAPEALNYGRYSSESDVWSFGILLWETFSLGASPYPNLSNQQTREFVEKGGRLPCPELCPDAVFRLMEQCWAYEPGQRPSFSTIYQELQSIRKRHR

>  <seq>
FGRTFYNQAIM [MCCC2_Y196]

>  <study system>
Fes (UniProt P07332)

>  <phosphorylation enrichment>
1.04

$$$$
>  <seq>
LQEQNYLAVDS [FAM114A1_Y115]

>  <study system>
Fes (UniProt P07332)

>  <phosphorylation enrichment>
2.5

$$$$
>  <seq>
SKKSTYRALLD [GANC_Y43_Q44R]

>  <study system>
Fes (UniProt P07332)

>  <phosphorylation enrichment>
0.655

$$$$
>  <seq>
KVVNEYVTKGQ [MYH7_Y410_G407V]

>  <study system>
Fes (UniProt P07332)

>  <phosphorylation enrichment>
0.601

$$$$
>  <seq>
NHQYDYTFDWT [CSNK1A1_Y294]

>  <study system>
Fes (UniProt P07332)

>  <phosphorylation enrichment>
0.991

$$$$
>  <seq>
SSQILYKLEQS [THADA_Y701_V699I]

>  <study system>
Fes (UniProt P07332)

>  <phosphorylation enrichment>
0.781

$$$$
>  <seq>
MSRNLYSGDCY [DDR2_Y736_Y740C]

>  <study system>
Fes (UniProt P07332)

>  <phosphorylation enrichment>
0.993

$$$$
>  <seq>
HNMPIYEGFAL [ACTA1_Y168_V165M_YF]

>  <study system>
Fes (UniProt P07332)

>  <phosphorylation enrichment>
5.34

$$$$
>  <seq>
WQQQSYLGSGI [CTNNB1_Y30_D32G]

>  <study system>
Fes (UniProt P07332)

>  <phosphorylation enrichment>
0.61

$$$$
>  <seq>
EFGFRYELVQF [UGGT2_Y1289_Y1285F_YF]

>  <study system>
Fes (UniProt P07332)

>  <phosphorylation enrichment>
1.21

$$$$
>  <seq>
VASMFYTLVIP [OR8K3_Y277_I275M]

>  <study system>
Fes (UniProt P07332)

>  <phosphorylation enrichment>
1.14

$$$$
>  <seq>
RSHLSYDVTPE [IQGAP3_Y1098_P1097S]

>  <study system>
Fes (UniProt P07332)

>  <phosphorylation enrichment>
1.14

$$$$
>  <seq>
VDDEIYFFRKP [PBRM1_Y1289_YF]

>  <study system>
Fes (UniProt P07332)

>  <phosphorylation enrichment>
1.4

$$$$
>  <seq>
CKLCQYFLDHL [ATRX_Y1849_Y1847C_YF]

>  <study system>
Fes (UniProt P07332)

>  <phosphorylation enrichment>
1.18

$$$$
>  <seq>
MTRDIYETDYY [INSR_Y1185]

>  <study system>
Fes (UniProt P07332)

>  <phosphorylation enrichment>
1.13

$$$$
>  <seq>
FTYDPYSEEEP [IL2RB_Y387_D391E]

>  <study system>
Fes (UniProt P07332)

>  <phosphorylation enrichment>
1.25

$$$$
>  <seq>
RSRSPYSPVFR [CDK13_Y399_L403F]

>  <study system>
Fes (UniProt P07332)

>  <phosphorylation enrichment>
0.77

$$$$
>  <seq>
VRFMAYTDETF [F8_Y450]

>  <study system>
Fes (UniProt P07332)

>  <phosphorylation enrichment>
1.19

$$$$
>  <seq>
VVPGSYDRLRV [IFT172_Y260_L257P]

>  <study system>
Fes (UniProt P07332)

>  <phosphorylation enrichment>
0.603

$$$$
>  <seq>
IIEDPYFGNDS [ACP1_Y132_YF]

>  <study system>
Fes (UniProt P07332)

>  <phosphorylation enrichment>
1.62

$$$$
>  <seq>
IIGNGYYFRVF [MYBPC3_Y1135]

>  <study system>
Fes (UniProt P07332)

>  <phosphorylation enrichment>
1.16

$$$$
>  <seq>
KHTLSYVDVGT [SDHA_Y629]

>  <study system>
Fes (UniProt P07332)

>  <phosphorylation enrichment>
0.685

$$$$
>  <seq>
SLIDGYYRLTA [JAK2_Y372]

>  <study system>
Fes (UniProt P07332)

>  <phosphorylation enrichment>
0.926

$$$$
>  <seq>
RAIGHYSATSK [FAM120A_Y328_Y327H]

>  <study system>
Fes (UniProt P07332)

>  <phosphorylation enrichment>
0.97

$$$$
>  <seq>
FGCGMYSHLQG [LGR4_Y848_D844G_YF]

>  <study system>
Fes (UniProt P07332)

>  <phosphorylation enrichment>
1.09

$$$$
>  <seq>
RAYRRYLLKQK [SCN2A_Y1919]

>  <study system>
Fes (UniProt P07332)

>  <phosphorylation enrichment>
0.491

$$$$
>  <seq>
RFVTRHIFNRE [HLA-DQB1_Y62_Y62H_YF]

>  <study system>
Fes (UniProt P07332)

>  <phosphorylation enrichment>
1.12

$$$$
>  <seq>
KSMFVYCTPNK [ATP2A2_Y497_S495F]

>  <study system>
Fes (UniProt P07332)

>  <phosphorylation enrichment>
1.19

$$$$
